Reference source for all entries: patent US12642769B2

Assign Remaining rate to each entry below.
Format: physicochemical
condition-context: buffer
Give bare numbers, in %.

Consider the reported Remaining rate for these molecules:
molecule: O=C1O[C@H]([C@@H](O)CO)C(O)=C1OP(=O)([O-])[O-].[Na+].[Na+] [APS, Sodium ascorbic acid-2-phosphate]
unit-name: %
Remaining rate: 3
--
molecule: CCCCCCCCCCCCCCCC(=O)OC[C@H](O)C1OC(=O)C(OP(=O)([O-])[O-])=C1[O-].[Na+].[Na+].[Na+] (stereo partly shown)
unit-name: %
Remaining rate: 100
--
molecule: Cc1c(C)c2c(c(C)c1OP(=O)([O-])OC1=C(O)[C@@H]([C@@H](O)CO)OC1=O)CC[C@@](C)(CCC[C@H](C)CCC[C@H](C)CCCC(C)C)O2.[K+]
unit-name: %
Remaining rate: 85

Query: Find the recorded Remaining rate belonging to O=C1O[C@H]([C@@H](O)CO)C(O)=C1O [AA, ascorbic acid, reference compound] and report it.
Reply: 1
